Test system: HOP-92 NSCLC
ASSAY_NAME: NCI tumour cell line growth inhibition, 48 h
REPORTED_METRIC: GI50

COc1ccc(-c2nnc(COc3ccc(Cl)cc3Cl)o2)cc1OC = 2.16 µM
Oc1ccc(Nc2nc3ccccc3c3occc23)cc1 = 13.9 µM
CCn1c2ccccc2c2cc(/C=C(/C#N)C(N)=S)ccc21 = 14.6 µM

----------
Test system: A549 NSCLC
ASSAY_NAME: NCI tumour cell line growth inhibition, 48 h
compounds and their reported TGI
REPORTED_METRIC: TGI

N#Cc1c(-c2ccc(Cl)cc2)csc1NC(=O)Nc1ccc(Cl)c(C(F)(F)F)c1 = 12.4 µM
O=C1c2ccccc2C(=O)N1C/C=N/NS(=O)(=O)c1ccc(F)cc1 = > 100 µM
O=C1NC(=O)/C(=C/c2c(Cl)nc3sccn23)S1 = > 100 µM
CCCCCOc1ccc(C=Nc2ccc(-c3ccc(N=Cc4ccc(OCCCCC)cc4)c(OC)c3)cc2OC)cc1 = > 100 µM
C[n+]1cn(C2=C([O-])c3ccccc3C(=O)/C2=N\S(=O)(=O)c2ccccc2)c2ccccc21 = > 100 µM
COc1cc(C2NCCC(c3ccccc3)(c3ccccc3)N2)cc(OC)c1OC (stereo not given) = > 100 µM
COc1ccc(-c2csc(-n3c(-c4ccccc4)nc4c(Br)cc(Br)cc4c3=O)n2)cc1 = > 100 µM
COc1ccc2c(c1)C1C(CO2)C(c2ccccc2)=NN1c1ccccc1 (stereo not given) = > 100 µM
Cc1ccc(C)c2c1C/C(=C\c1ccccc1C(=O)O)C2=O = > 100 µM
COc1ccc2c3c1O[C@H]1[C@@H](O)CC[C@@]4(O)[C@@H](C2)N(C)CC[C@]314 = > 100 µM
CC(C)=CCCC(C)[C@H]1CC(O)C2(C)C3=CCC4C(C)(C)[C@@H](O)CC[C@]4(C)C3=CC[C@]12C (stereo not given in full) = 10.6 µM
O=C1C(Cl)C(c2cc(Br)cc(Br)c2O)N1n1cnc2ccccc2c1=O (stereo not given) = > 100 µM
CCCCC1CC(c2ccc(Cl)cc2)=NO1 (stereo not given) = > 100 µM
COc1ccc(C2/C(=C(\O)c3ccccc3)C(=O)C(O)(CC(=O)c3ccccc3)N2c2ccc(OC)cc2)cc1 (stereo not given) = > 100 µM
CCN1C(=O)C(=C/C=C/c2ccc(OC)cc2)C(=O)N(CC)C1=S = > 100 µM
COC(=O)C1C(O)C(C)C(=O)C(C)/C=C\C=C(C)C(=O)Nc2c(C)c(OC(C)=O)c3c(c2O)C(=O)C(C)=C2OCOC(=C23)C(C)=CC(C)(O)C(O)C(C)C1O (stereo not given) = 61.2 µM
CN(C)c1[se]nc2c1c(=O)n(C)c(=O)n2C = > 100 µM
CCOC(=O)C1C(c2ccccc2)=C(c2ccccc2)C(c2ccccc2)=C1c1ccccc1 = 97.4 µM
COc1ccc(C(=C[N+](=O)[O-])c2ccc(OC)cc2)cc1 = > 100 µM
Fc1c(F)c(F)c2c(c1F)CSc1nc3ccccc3n1-2 = > 100 µM
CCOC(=O)NC(Nc1ccc(OC(F)(F)F)cc1)(C(F)(F)F)C(F)(F)F = > 100 µM
O=C1c2ccccc2C(=Nc2ccc3ccccc3c2)C1(C1=C(c2ccccc2)C(=Nc2ccc3ccccc3c2)c2ccccc21)c1ccccc1 (stereo not given) = > 100 µM
c1cc(-c2ccc(-c3ccc(-c4ccc(-c5cccc6nsnc56)[nH]4)c4nsnc34)[nH]2)c2nsnc2c1 = > 100 µM
COC(=O)C1Cc2c([nH]c3ccccc23)C(C2CCCCC2)N1 (stereo not given) = > 100 µM
CC1OC(OC2C(O)C(OCCc3ccc(O)c(O)c3)OC(CO)C2OC(=O)/C=C/c2ccc(O)c(O)c2)C(O)C(O)C1OC1OCC(O)(CO)C1O (stereo not given) = > 100 µM
